For each of the compounds below, state its IC90.
- Test system: Rhizoctonia solani (Rs)
- Assay explanation: Growth inhibition assay of fungal pathogens, Rs
- Type: cell-based
- Measurement setup: 48 h, mycelial plugs, growth inhibition at 48 hours vs 2% DMSO control, read-out: Concentration at 90% Inhibition Rs

Here are 5 compounds together with their reported answers.
| Compound | IC90 |
| --- | --- |
| COc1ccc(F)cc1[C@](C)(Cn1c(=O)n(C(C)(C)C(=O)NC(C)C)c(=O)c2c(C)c(-n3nccn3)sc21)OCCC#N | 2 µg/mL |
| COc1ccc(F)cc1[C@H](Cn1c(=O)n(C(C)(C)C(=O)N2CCCC2)c(=O)c2c(C)c(-n3nccn3)sc21)OCC(C)C | 0.08 µg/mL |
| COc1ccc(F)cc1[C@@H](O)Cn1c(=O)n([C@@H](C)C(=O)N(C)C(C)C)c(=O)c2c(C)c(-n3nccn3)sc21 | 0.08 µg/mL |
| COc1ccc(F)cc1[C@H](Cn1c(=O)n(C(C)C(=O)N2CCCC2)c(=O)c2c(C)c(-n3nccn3)sc21)OC(C)C (stereo partly drawn) | 0.4 µg/mL |
| COc1ccccc1[C@@H](O)Cn1c(=O)n(C(C)(C)C(=O)N2CCCC2)c(=O)c2c(C)c(-n3nccn3)sc21 | 0.08 µg/mL |

Kindly consider the entry below.
Reported IC90 of "CCNC(=O)C(C)(C)n1c(=O)c2c(C)c(-n3nccn3)sc2n(C[C@H](OCCC#N)c2cc(F)ccc2OC)c1=O" : 0.08 µg/mL
